molecular target: Peptidyl-prolyl cis-trans isomerase NIMA-interacting 1 (Homo sapiens, UniProt Q13526); experiment: Inhibition of Pin1 (unknown origin) using Suc-Ala-Glu-Pro-Phe-4-nitroanilide as substrate after 30 mins by protease-coupled assay
Sequence (Q13526 whole entry): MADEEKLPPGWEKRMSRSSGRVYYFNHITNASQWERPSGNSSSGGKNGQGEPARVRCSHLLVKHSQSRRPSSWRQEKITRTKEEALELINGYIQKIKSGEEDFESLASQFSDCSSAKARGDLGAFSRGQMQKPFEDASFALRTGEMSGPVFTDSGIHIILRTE
Experimental endpoint: IC50

# return recorded IC50 for input CC1(C)C(=O)CC[C@]2(C)C3=C(CC[C@@H]12)[C@@]1(C)CC[C@@H]([C@H](CCC(=O)N2CCNCC2)C(=O)OCc2ccccc2)[C@]1(C)CC3
> 40 µM

# return recorded IC50 for input COC(=O)CC[C@H](C(=O)OCc1ccccc1)[C@@H]1CC[C@]2(C)C3=C(CC[C@@]12C)[C@@]1(C)CCC(=O)C(C)(C)[C@@H]1CC3
> 40 µM

# return recorded IC50 for input CC1(C)C(=O)CC[C@]2(C)C3=C(CC[C@@H]12)[C@@]1(C)CC[C@@H]([C@H](CCC(N)=O)C(=O)OCc2ccccc2)[C@]1(C)CC3
> 40 µM
